- MEASURED TARGET: hTLR8 (Homo sapiens)
- Construct: host or cells: HEK-Blue hTLR8 (HEK293-derived reporter cells with SEAP read-out)
- Sequence (Q9NR97 27-1041): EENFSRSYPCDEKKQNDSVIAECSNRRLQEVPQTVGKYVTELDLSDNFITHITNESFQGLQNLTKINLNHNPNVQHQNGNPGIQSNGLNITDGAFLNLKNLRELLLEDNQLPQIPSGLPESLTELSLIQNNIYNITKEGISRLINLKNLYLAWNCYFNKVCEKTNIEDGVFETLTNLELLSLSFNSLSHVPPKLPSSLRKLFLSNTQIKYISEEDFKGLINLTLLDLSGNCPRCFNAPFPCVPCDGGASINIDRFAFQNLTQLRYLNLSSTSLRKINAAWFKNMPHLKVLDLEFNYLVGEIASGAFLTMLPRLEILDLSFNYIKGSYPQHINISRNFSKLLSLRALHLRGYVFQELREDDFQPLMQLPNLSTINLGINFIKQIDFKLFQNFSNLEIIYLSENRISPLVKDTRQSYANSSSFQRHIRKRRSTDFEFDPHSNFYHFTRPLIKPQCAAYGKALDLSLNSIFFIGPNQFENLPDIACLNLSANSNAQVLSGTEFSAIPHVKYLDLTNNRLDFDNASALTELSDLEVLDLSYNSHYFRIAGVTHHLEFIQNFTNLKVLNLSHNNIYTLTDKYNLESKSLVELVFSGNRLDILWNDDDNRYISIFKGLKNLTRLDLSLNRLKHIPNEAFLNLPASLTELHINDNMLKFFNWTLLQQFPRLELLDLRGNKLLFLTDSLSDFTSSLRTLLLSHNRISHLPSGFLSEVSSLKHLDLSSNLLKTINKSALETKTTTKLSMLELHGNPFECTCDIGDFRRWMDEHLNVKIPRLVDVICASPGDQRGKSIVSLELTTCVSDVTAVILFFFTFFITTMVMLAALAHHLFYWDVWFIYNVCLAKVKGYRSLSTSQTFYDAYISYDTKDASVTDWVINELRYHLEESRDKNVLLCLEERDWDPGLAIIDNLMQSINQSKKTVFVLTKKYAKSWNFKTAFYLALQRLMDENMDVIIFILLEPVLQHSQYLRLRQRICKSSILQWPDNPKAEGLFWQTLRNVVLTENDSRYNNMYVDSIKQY
- ASSAY NAME: EC50 assay for small molecule agonists, HEK-Blue hTLR8 cells, SEAP readout
- Type: cell-based
- SETTINGS: agonist activity, read-out: hTLR8(EC50)
Catalogue of EC50 readings, one per entry.
PROPERTY: EC50 (nM)

- SAMPLE SMILES: "CCCCCc1cc(Cc2ccc(CN3CCCCC3)cc2)c(C)nc1N"
  PROPERTY: "EC50"
  QUALIFIER: "="
  READOUT NUMBER: 54
- SAMPLE SMILES: "CCCCCc1cc(Cc2ccccc2CN2CCOCC2)c(C)nc1N"
  PROPERTY: "EC50"
  QUALIFIER: ">"
  READOUT NUMBER: 4000
- SAMPLE SMILES: "CCCCCc1cc(Cc2ccccc2CN2CCCC2)c(C)nc1N"
  PROPERTY: "EC50"
  QUALIFIER: ">"
  READOUT NUMBER: 4000
- SAMPLE SMILES: "CCCCCc1cc(Cc2ccc(COC)cc2)c(C)nc1N"
  PROPERTY: "EC50"
  QUALIFIER: ">"
  READOUT NUMBER: 4000
- SAMPLE SMILES: "CCCCCc1cc(Cc2ccc(CN3CCC3)cc2)c(C)nc1N"
  PROPERTY: "EC50"
  QUALIFIER: "="
  READOUT NUMBER: 121
- SAMPLE SMILES: "CCCCCc1cc2nc(Cc3ccc(CN4CCCC4)cc3)ccc2nc1N"
  PROPERTY: "EC50"
  QUALIFIER: "="
  READOUT NUMBER: 480
- SAMPLE SMILES: "CCCCCc1cc2nc(Cc3ccc(CN4CCOCC4)cc3)ccc2nc1N"
  PROPERTY: "EC50"
  QUALIFIER: "="
  READOUT NUMBER: 1580
- SAMPLE SMILES: "CCCCCc1cc(Cc2ccc(CN(C)C)cc2)c(C)nc1N"
  PROPERTY: "EC50"
  QUALIFIER: "="
  READOUT NUMBER: 58
- SAMPLE SMILES: "CCCCCc1cc(Cc2ccc(CN(C)C)cc2F)c(C)nc1N"
  PROPERTY: "EC50"
  QUALIFIER: "="
  READOUT NUMBER: 80
- SAMPLE SMILES: "COCCCc1cc(Cc2ccc(CN3CCCC3)cc2)c(C)nc1N"
  PROPERTY: "EC50"
  QUALIFIER: ">"
  READOUT NUMBER: 4000
- SAMPLE SMILES: "CCCCCc1cc(Cc2ccc(CN(C)C)cc2OC)c(C)nc1N"
  PROPERTY: "EC50"
  QUALIFIER: "="
  READOUT NUMBER: 87
- SAMPLE SMILES: "CCCCCc1cc(Cc2ccc(CN3CCCC3)cc2OC(C)=O)c(C)nc1N"
  PROPERTY: "EC50"
  QUALIFIER: "="
  READOUT NUMBER: 175
- SAMPLE SMILES: "CCCCCc1cc(Cc2ccccc2CN)c(C)nc1N"
  PROPERTY: "EC50"
  QUALIFIER: ">"
  READOUT NUMBER: 4000
- SAMPLE SMILES: "CCCCCc1cc(Cc2ccc(C(=O)N3CCCC3)cc2)c(C)nc1N"
  PROPERTY: "EC50"
  QUALIFIER: ">"
  READOUT NUMBER: 4000
- SAMPLE SMILES: "CCCCCc1cc(Cc2ccc(CN(C)CCOCCOCCC(F)(F)P(=O)(OCC)OCC)cc2)c(C)nc1N"
  PROPERTY: "EC50"
  QUALIFIER: ">"
  READOUT NUMBER: 4000
- SAMPLE SMILES: "CCCCCc1cc(Cc2ccc(CN(C)C)cc2OC(=O)CC(C)C)c(C)nc1N"
  PROPERTY: "EC50"
  QUALIFIER: "="
  READOUT NUMBER: 252
- SAMPLE SMILES: "CCCCCc1cc(Cc2ccccc2CN(C)C)c(C)nc1N"
  PROPERTY: "EC50"
  QUALIFIER: ">"
  READOUT NUMBER: 4000
- SAMPLE SMILES: "CCCCCc1cc(Cc2ccc(CN(C)CC(=O)OC)cc2)c(C)nc1N"
  PROPERTY: "EC50"
  QUALIFIER: "="
  READOUT NUMBER: 3000
- SAMPLE SMILES: "CCCCCc1cc2nc(Cc3ccc(CN(C)C)cc3)ccc2nc1N"
  PROPERTY: "EC50"
  QUALIFIER: "="
  READOUT NUMBER: 398
